- Test system: E. turcicum
- testSummary: Mycelial growth inhibition test in vitro (E. turcicum)
- Type: cell-based
- conditionDescription: Exserohilum turcicum; 50 μg/mL, mean ± SD of three replicates; read-out: The Inhibition Rate (%) E. turcicum
Kindly return y if reported inhibition at 50 µg/mL is no lower than 20%; return n if it is lower.

*Q* Determine whether this molecule has inhibition at 50 µg/mL no lower than 20%: COc1ccc(-c2nc(-c3ccc(OC)c(OC)c3)no2)cc1 [Compound 4w]
*A* n

*Q* Determine whether this molecule has inhibition at 50 µg/mL no lower than 20%: COc1ccc(-c2noc(-c3ccc(OC)c(OC)c3)n2)cc1 [Compound 4k]
*A* n

*Q* Determine whether this molecule has inhibition at 50 µg/mL no lower than 20%: COc1cc(/C=C/c2nc(-c3ccccc3)no2)cc(OC)c1OC [Compound 5b]
*A* y

*Q* Determine whether this molecule has inhibition at 50 µg/mL no lower than 20%: COc1ccc(-c2noc(/C=C/c3ccccc3)n2)cc1 [Compound 5d]
*A* n

*Q* Determine whether this molecule has inhibition at 50 µg/mL no lower than 20%: COc1ccc(-c2noc(-c3ccc(C(C)(C)C)cc3)n2)cc1 [Compound 4l]
*A* y

*Q* Determine whether this molecule has inhibition at 50 µg/mL no lower than 20%: COc1ccc(-c2noc(-c3ccc(Cl)cc3)n2)cc1OC [Compound 4m]
*A* n

*Q* Determine whether this molecule has inhibition at 50 µg/mL no lower than 20%: COc1ccc(-c2noc(-c3cc(O)cc(O)c3)n2)cc1OC [Compound 4p]
*A* n

*Q* Determine whether this molecule has inhibition at 50 µg/mL no lower than 20%: COc1ccc(-c2noc(-c3ccc(Cl)cc3)n2)cc1 [Compound 4j]
*A* n

From: paper PMC12029309
